Test: Pharmacokinetic test in monkeys
Assay type: in vivo, Cynomolgus macaques
Conditions: male, cynomolgus monkey, plasma, IV 1 mg/kg
quantity: half-life (h)
Provide the reading as a plain figure in h.

For [2H]C([2H])([2H])N(c1nc(-c2ccc(F)cc2)c(C#N)s1)c1c(CC)nn2cc(F)c(N3CCN(CC(=O)N4CC(O)C4)CC3)cc12 [Compound 3] the compound record lists half-life as 2.96

###

Assay: Dynamic solubility test in water and biological vehicles
Assay type: physicochemical
Conditions: water, thermodynamic from solid; vehicle H2O, 4 h, 37° C.; read-out: S: Solubility
quantity: solubility at 4 h

For [2H]C([2H])([2H])N(c1nc(-c2ccc(F)cc2)c(C#N)s1)c1c(CC)nn2cc(F)c(N3CCN(CC(=O)N4CC(O)C4)CC3)cc12 [Compound A Crystal form I] the compound record lists solubility at 4 h as > 5300 µg/mL
